assayed.target: human KCNQ2 and KCNQ3 (Homo sapiens, UniProt O43525+O43526)
Sequence (O43526 whole entry): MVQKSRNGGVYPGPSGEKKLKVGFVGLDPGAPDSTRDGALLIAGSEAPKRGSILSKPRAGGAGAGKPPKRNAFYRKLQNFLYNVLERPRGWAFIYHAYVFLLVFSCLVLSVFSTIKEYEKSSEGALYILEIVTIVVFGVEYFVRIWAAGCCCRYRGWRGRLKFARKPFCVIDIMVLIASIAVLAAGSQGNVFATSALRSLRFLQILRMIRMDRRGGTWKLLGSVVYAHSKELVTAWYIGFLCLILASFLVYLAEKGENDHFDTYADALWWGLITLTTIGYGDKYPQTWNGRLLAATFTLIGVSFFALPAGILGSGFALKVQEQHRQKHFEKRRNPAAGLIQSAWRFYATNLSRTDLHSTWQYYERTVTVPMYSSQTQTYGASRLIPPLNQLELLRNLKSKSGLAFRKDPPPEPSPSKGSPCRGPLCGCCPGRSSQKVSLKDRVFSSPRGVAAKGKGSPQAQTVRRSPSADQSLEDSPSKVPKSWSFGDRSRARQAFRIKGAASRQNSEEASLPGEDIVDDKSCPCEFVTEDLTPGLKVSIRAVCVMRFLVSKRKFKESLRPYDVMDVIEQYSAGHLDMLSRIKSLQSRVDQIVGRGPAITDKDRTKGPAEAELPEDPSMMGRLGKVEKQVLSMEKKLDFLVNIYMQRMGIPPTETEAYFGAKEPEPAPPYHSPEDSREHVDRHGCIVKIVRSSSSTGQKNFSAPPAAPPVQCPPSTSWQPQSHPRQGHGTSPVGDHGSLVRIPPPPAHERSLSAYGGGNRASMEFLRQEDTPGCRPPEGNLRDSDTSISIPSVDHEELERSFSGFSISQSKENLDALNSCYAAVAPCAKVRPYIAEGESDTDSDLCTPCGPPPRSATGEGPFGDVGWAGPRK
Sequence (O43525 whole entry): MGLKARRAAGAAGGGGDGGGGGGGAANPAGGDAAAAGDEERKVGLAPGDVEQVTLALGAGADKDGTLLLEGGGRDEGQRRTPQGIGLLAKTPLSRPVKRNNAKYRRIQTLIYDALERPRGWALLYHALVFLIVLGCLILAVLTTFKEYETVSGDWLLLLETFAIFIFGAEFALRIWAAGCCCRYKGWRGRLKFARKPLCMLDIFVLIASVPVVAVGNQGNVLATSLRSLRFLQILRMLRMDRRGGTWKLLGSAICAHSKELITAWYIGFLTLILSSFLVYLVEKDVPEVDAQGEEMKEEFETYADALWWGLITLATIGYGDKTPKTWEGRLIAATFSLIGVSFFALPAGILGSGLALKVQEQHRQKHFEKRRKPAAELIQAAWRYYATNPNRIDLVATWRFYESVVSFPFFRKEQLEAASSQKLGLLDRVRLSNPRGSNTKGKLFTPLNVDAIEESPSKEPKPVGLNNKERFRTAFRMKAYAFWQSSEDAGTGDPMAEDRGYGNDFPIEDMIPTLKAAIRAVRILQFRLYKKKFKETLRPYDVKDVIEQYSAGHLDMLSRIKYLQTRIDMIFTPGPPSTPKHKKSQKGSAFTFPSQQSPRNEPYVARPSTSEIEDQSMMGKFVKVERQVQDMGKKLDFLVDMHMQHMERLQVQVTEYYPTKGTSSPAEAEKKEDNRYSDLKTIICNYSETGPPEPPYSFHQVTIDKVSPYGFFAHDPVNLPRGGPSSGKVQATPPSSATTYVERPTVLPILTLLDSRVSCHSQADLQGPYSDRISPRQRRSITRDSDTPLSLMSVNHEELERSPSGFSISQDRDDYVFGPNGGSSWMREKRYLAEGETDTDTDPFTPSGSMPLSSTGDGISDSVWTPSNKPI
experimental.details: KCNQ 2/3 channel activation, thallium flux FLIPR assay (BTC-AM dye) in HEK293 cells
measurement.setup: HEK293 cells stably expressing human KCNQ2 and KCNQ3; compound incubated 4 minutes; Tl+ flux fluorescence
pEC50: −log10 of the molar value.

# compound, pEC50
data = [
    ("Cc1nc2cc(Cl)ccc2c(=O)n1NC(=O)CC12CC3CC(CC(C3)C1)C2", "< 4.52"),
    ("O=C(CC12CC3CC(CC(C3)C1)C2)Nn1cnc2ccc(Br)cc2c1=O", "< 4.52"),
    ("CC(C)c1nc2ccccc2c(=O)n1NC(=O)C[C@@H]1C[C@@H]2CC(=O)C[C@@H](C2)C1", "< 4.50"),
    ("O=C(CC12CC3CC(CC(C3)C1)C2)Nn1cnc2sc(-c3ccccc3)cc2c1=O", "< 4.52"),
    ("O=C(Nn1c(-c2ccccc2)nc2ccccc2c1=O)C1C2CC3CC(C2)CC1C3 (stereo not drawn)", "< 4.52"),
    ("CC(C)c1nc2cc(-c3ccccc3F)sc2c(=O)n1NC(=O)CC1CC2CCC1C2 (racemic)", "< 4.52"),
]
